Assay: protease stability score; higher = more stable; yeast display proteolysis, trypsin and chymotrypsin;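 note: relative to predicted unfolded state with 0 unfolded-like and 1 meaning tenfold more protease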
Would you kindly list protease stability score for each of these sequences?
Hey, just send me the number, nothing else.

So, DDDEEIIERALRLWEKFEQTGDEKRLDEMIDPNVRVNYNGVIHHGRDHLRHFFSRFDHFKRLHIEDSRFFNGKIIIHTRLEGRIGDKERTVNVIIIALKVDGKWFLESWSMS ? Its protease stability score was 0.618

So, DEDEEEYRRMHEILDDALETGDEHTISRMADPHVRNEINGVKLHGREIWFEYMKRLLDHLGVDNIKIKIRLRHIDRQGDKVLSETRLHVYFNGVEERRRTSQVWLKIDGQWHLHHVSVE ? Its protease stability score was 0.869

So, EEDKETAEHFSRVLHENWETGDEHRELLYMDPNVRTDFNGVDAVGREEFHKLVHHLLTHIRMRSLHIRKVHIQGEYLHIEGELNTEVNGREVVLEMRITSLKINGRWITHSMHFR ? Its protease stability score was 0.304

// provenance: the NTF2 design screens of Basanta et al. (2020)
